IC50 by entry:
- studySystem: hNTS1 receptor (Homo sapiens, UniProt P30989)
- Construct: membranes prepared from them
- Sequence (P30989 whole entry): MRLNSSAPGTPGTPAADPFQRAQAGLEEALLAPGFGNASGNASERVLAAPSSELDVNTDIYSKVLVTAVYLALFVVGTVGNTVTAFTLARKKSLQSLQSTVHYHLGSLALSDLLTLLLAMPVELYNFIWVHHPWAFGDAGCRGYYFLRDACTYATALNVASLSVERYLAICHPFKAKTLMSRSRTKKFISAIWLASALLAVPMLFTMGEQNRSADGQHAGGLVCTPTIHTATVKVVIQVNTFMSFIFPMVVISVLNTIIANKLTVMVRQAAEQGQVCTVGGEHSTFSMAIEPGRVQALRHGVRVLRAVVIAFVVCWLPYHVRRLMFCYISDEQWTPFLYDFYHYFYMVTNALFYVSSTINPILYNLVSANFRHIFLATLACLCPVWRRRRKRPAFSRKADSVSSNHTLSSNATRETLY
- assayName: Competitive radioligand binding assay on the hNTS1 receptor
- conditionDescription: displacement of 125I-[Tyr3]-NT, membranes of CHO-K1 cells expressing hNTS1; read-out: IC50 NTS1
Where a SMILES comes first, the peptide text is derived from it. Bridges are numbered along the chain shown (N, C = ends). [ ]: non-standard residue; d: D form. ξ: configuration not given here. Ile(3ξ) = CCC(C)[C@H](N)C(=O)O; AllylGly = C=CC[C@H](N)C(=O)O; Nva = CCC[C@H](N)C(=O)O

- CC(C)C[C@H](NC(=O)[C@H](Cc1ccc(O)cc1)NC(=O)[C@@H]1CC=CC[C@H](N)C(=O)N[C@H](Cc2c[nH]cn2)C(=O)N[C@@H](CCCCN)C(=O)N1)C(=O)O [compound 84, c[G(All)H*KG(All)]YL] (H-[AllylGly][dH]K[AllylGly]YL-OH; staple 1-4): > 100 µM
- CCC[C@@H]1NC(=O)[C@@H](N)CC=CC[C@@H](C(=O)N[C@@H](Cc2ccc(O)cc2)C(=O)N[C@@H](CC(C)C)C(=O)O)NC(=O)[C@H](CCCCN)NC1=O [compound 86, c[G(All)NvaKG(All)]YL] (H-[AllylGly][Nva]K[AllylGly]YL-OH; staple 1-4): > 100 µM
- CCC[C@@H]1NC(=O)[C@H](CCCCN)NC(=O)[C@@H](N)CC=CC[C@@H](C(=O)N[C@@H](Cc2ccc(O)cc2)C(=O)N[C@@H](CC(C)C)C(=O)O)NC1=O [compound 58, c[G(All)KNvaG(All)]YL] (H-[AllylGly]K[Nva][AllylGly]YL-OH; staple 1-4): > 100 µM

Lab note: compound CCC(C)[C@H](NC(=O)[C@H](Cc1ccc(O)cc1)NC(=O)[C@@H]1CC=CC[C@H](N)C(=O)N[C@@H](CCCCN)C(=O)N[C@@H](CCCCN)C(=O)N1)C(=O)O (stereo partly shown) [compound 14, c[G(All)KKG(All)]YI] (H-[AllylGly]KK[AllylGly]Y[Ile(3ξ)]-OH; staple 1-4) tested on hNTS1 receptor (Homo sapiens, UniProt P30989); recorded IC50 was 100 µM
